Cited source: patent US20150344457A1

# tgt: PRMT5/MEP50 (Homo sapiens)
# Construct: Expressed full-length human Flag-PRMT5/6His-MeP50 protein complex was purified; made in house; host or cells: Spodoptera frugiperda (SF9) insect cells, baculovirus (pDEST8)
# Sequence (O14744 with tags, fused parts or gaps): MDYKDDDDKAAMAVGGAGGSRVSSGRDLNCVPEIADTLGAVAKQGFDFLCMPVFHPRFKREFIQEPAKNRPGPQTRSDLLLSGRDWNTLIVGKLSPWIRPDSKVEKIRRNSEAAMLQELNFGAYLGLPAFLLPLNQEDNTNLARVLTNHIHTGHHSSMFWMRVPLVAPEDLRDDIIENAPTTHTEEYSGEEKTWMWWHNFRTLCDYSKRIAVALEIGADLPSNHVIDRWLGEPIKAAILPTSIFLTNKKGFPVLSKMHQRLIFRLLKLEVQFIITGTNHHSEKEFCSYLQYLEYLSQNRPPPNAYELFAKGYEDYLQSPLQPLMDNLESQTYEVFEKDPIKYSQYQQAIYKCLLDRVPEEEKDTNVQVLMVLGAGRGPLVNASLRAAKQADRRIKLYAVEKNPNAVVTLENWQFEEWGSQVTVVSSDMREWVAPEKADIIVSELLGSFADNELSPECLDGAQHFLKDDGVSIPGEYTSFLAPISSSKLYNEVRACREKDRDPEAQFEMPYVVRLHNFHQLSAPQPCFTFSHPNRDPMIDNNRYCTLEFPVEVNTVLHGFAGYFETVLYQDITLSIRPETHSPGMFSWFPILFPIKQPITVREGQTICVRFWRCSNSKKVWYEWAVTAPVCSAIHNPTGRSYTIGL
# Sequence (Q9BQA1 with tags, fused parts or gaps partner limits assumed): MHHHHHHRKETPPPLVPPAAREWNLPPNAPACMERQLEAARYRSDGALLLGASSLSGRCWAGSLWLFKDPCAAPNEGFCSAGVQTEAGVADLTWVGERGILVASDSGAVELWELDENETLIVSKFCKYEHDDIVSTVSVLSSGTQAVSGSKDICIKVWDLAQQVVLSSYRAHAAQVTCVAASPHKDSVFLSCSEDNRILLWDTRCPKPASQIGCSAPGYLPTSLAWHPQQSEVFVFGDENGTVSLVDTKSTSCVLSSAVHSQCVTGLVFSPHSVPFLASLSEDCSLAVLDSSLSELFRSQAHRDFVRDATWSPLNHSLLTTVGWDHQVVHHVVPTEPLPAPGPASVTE
# assay-details: PRMT5 Biochemical Assay (PRMT5/MEP50 enzyme assay on peptide substrate, 3H-SAM Flashplate)
# test-parameters: Table D-2; read-out: Biochemical IC50
Let's look at some compounds and their measured IC50.

compound	IC50
OC(COc1cccc(-c2ccc3ncn(C4CNC4)c3c2)c1)CN1CCc2ccccc2C1 (centres unmarked)	101 to 1000 nM
OC(COCC1CCCCO1)CN1CCc2ccccc2C1 (centres unmarked)	> 40000 nM
CN1CCN(C(=O)Cn2ccc3cnc(-c4ccnc(NCC(O)CN5CCc6ccccc6C5)c4)nc32)CC1 (centres unmarked)	< 100 nM
OC(COc1cccc(-c2ncc3ccn(C4CCNCC4)c3n2)c1)CN1CCc2ccccc2C1 (centres unmarked)	< 100 nM
OC(COc1cccc(-c2ccc3[nH]ncc3c2)c1)CN1CCc2ccccc2C1 (centres unmarked)	101 to 1000 nM
OC(COC1CCCNC1)CN1CCc2ccccc2C1 (centres unmarked)	> 40000 nM
Cn1cnc2ccc(-c3cc(NCC(O)CN4CCc5ccccc5C4)n[nH]3)cc21 (centres unmarked)	101 to 1000 nM
Cn1cnc2ccc(-c3cncc(NCC(O)CN4CCc5ccccc5C4)c3)cc21 (centres unmarked)	< 100 nM

---

# Tested on: Z-138 cells
# assay-details: Z-138 Proliferation Assay (Cell Titer Glo, 5 days)
# Type: cell-based
# test-parameters: Homo sapiens, Table D-2
parameter: EC50

compound	parameter	value-measured
CN1CCC(n2cnc3ccc(-c4ccnc(NCC(O)CN5CCc6ccccc6C5)c4)cc32)CC1 (stereo not shown)	EC50	1 to 10 µM
CN(CC(O)CN1CCc2ccccc2C1)c1cccc(CNC2CCCC2)c1 (stereo not shown)	EC50	10 to 40 µM
OC(COc1cccc(-c2ccc3ncoc3c2)c1)CN1CCc2ccccc2C1 (stereo not shown)	EC50	10 to 40 µM
OC(COc1cccc(-c2ncc3ccn(C4CCNCC4)c3n2)c1)CN1CCc2ccccc2C1 (stereo not shown)	EC50	1 to 10 µM
Cn1cnc2ccc(-c3ccnc(NC[C@@H](O)CN4CCc5ccccc5C4)c3)cc21	EC50	1 to 10 µM
OC(COc1cccc(-c2cccc(F)c2F)c1)CN1CCc2ccccc2C1 (stereo not shown)	EC50	10 to 40 µM
OC(COc1cccc(-c2ccc3cn[nH]c3c2)c1)CN1CCc2ccccc2C1 (stereo not shown)	EC50	10 to 40 µM
O=C(Cn1cnc2ccc(-c3cccc(OCC(O)CN4CCc5ccccc5C4)c3)cc21)N1CCCC1 (stereo not shown)	EC50	10 to 40 µM
N#Cc1ccccc1-c1cccc(OCC(O)CN2CCc3ccccc3C2)c1 (stereo not shown)	EC50	10 to 40 µM
CN(CC(O)CN1CCc2ccccc2C1)c1cccc(CNC2CCOCC2)c1 (stereo not shown)	EC50	> 20 µM
Cn1cc2ccc(-c3cc(NCC(O)CN4CCc5ccccc5C4)ncn3)cc2n1 (stereo not shown)	EC50	> 20 µM
OC(COC1CCCNC1)CN1CCc2ccccc2C1 (stereo not shown)	EC50	> 40 µM
CC(=O)N1CCC(n2cnc3ccc(-c4ccnc(NCC(O)CN5CCc6ccccc6C5)c4)cc32)CC1 (stereo not shown)	EC50	1 to 10 µM
Cn1cnc2ccc(-c3cccc(OCC(O)CN4CCc5ccccc5C4)c3)nc21 (stereo not shown)	EC50	0.101 to 1 µM
CNC(=O)c1cccc(-c2cccc(OCC(O)CN3CCc4ccccc4C3)c2)c1 (stereo not shown)	EC50	> 20 µM
CC(C)(C)OC(=O)N1CCCC(OCC(O)CN2CCc3ccccc3C2)C1 (stereo not shown)	EC50	> 40 µM
CC(C)n1nccc1-c1ccc(OCC(O)CN2CCc3ccccc3C2)cc1 (stereo not shown)	EC50	> 40 µM
OC(COc1ccc2c(c1)OCO2)CN1CCc2ccccc2C1 (stereo not shown)	EC50	> 20 µM
OC(COc1cccc(-c2ccc3ncn(-c4ccccc4)c3c2)c1)CN1CCc2ccccc2C1 (stereo not shown)	EC50	> 20 µM
OC(COCC1CCCO1)CN1CCc2ccccc2C1 (stereo not shown)	EC50	> 40 µM
CC(=O)c1cccc(-c2cccc(OCC(O)CN3CCc4ccccc4C3)c2)c1 (stereo not shown)	EC50	10 to 40 µM
CN1CCN(C(=O)Cn2ccc3cnc(-c4cccc(OCC(O)CN5CCc6ccccc6C5)c4)nc32)CC1 (stereo not shown)	EC50	10 to 40 µM
Cn1cc2ccc(-c3cccc(NCC(O)CN4CCc5ccccc5C4)c3)nc2n1 (stereo not shown)	EC50	10 to 40 µM
CC(=O)N1CCC(n2ccc3cnc(-c4cccc(OCC(O)CN5CCc6ccccc6C5)c4)nc32)CC1 (stereo not shown)	EC50	1 to 10 µM
O=C(Nc1cccc(OCC(O)CN2CCc3ccccc3C2)c1)c1cnccn1 (stereo not shown)	EC50	> 20 µM
Cc1ncc2ccc(-c3cccc(OCC(O)CN4CCc5ccccc5C4)c3)cn12 (stereo not shown)	EC50	1 to 10 µM
OC(COc1cccc(-c2ccc3ncn(C4COC4)c3c2)c1)CN1CCc2ccccc2C1 (stereo not shown)	EC50	10 to 40 µM
Cc1ccncc1-c1cccc(OCC(O)CN2CCc3ccccc3C2)c1 (stereo not shown)	EC50	10 to 40 µM
CCCCNCc1cccc(COCC(O)CN2CCc3ccccc3C2)c1 (stereo not shown)	EC50	> 20 µM
Cn1cnc(C(=O)Nc2cccc(OCC(O)CN3CCc4ccccc4C3)c2)c1 (stereo not shown)	EC50	> 20 µM
OC(COc1cccc(-c2ccc3ncn(C4CNC4)c3c2)c1)CN1CCc2ccccc2C1 (stereo not shown)	EC50	1 to 10 µM
Cn1cnc2ccc(-c3ccnc(NCC(O)CN4CCc5ccccc5C4)c3)cc21 (stereo not shown)	EC50	1 to 10 µM
Cn1cnc2ccc(-c3cncc(NCC(O)CN4CCc5ccccc5C4)n3)cc21 (stereo not shown)	EC50	> 20 µM
CN1CCN(c2ccc(-c3cccc(OCC(O)CN4CCc5ccccc5C4)c3)cn2)CC1 (stereo not shown)	EC50	1 to 10 µM
